Each item that follows carries a reported self-cleavage.
B1: OR4K15 (parent)
chain: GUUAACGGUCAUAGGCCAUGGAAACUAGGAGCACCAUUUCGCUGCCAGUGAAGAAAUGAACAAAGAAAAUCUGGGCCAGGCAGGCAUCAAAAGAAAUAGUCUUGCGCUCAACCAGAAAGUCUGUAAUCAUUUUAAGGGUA

variants of: B1; assay: self-cleavage, relative activity (ratio to wild type); higher = more cleavage; in vitro, sequencing; the parent is a self-cleaving ribozyme
Note: the reply should be a number with no unit written.

For orientation, consider the following solved cases.
mutation-key | observable | recorded-value
A60U A140G | self-cleavage | 2.47
U12C A69G | self-cleavage | 1.68
C77U A89G | self-cleavage | 2.1

# ---- query variant ----
Enquiry: So what's the measured self-cleavage for this one? C61U A98U
Return: 2.63
